Overview of recorded protein stability index for various variants
B1: RHOBTB3 (parent)
chain: KVVEAHKIVLCAVSHVFMLLFNVK

Variants of: B1
Assay: protein stability index of a GFP-peptide fusion (GPS, HEK-293T) (PSI 1-6); higher = more stable;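 further: lentivirally expressed fusions sorted by FACS into six bins by GFP to DsRed ratio, PSI derived from sequencing read proportions per bin multiplied by bin number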
Conditions: c terminus: a fixed tail appended

# Mutation Name, protein stability index
data = [
    ("L19A", 2.69),
    ("K1I", 2.87),
    ("K1E", 3.04),
    ("K24D", 3.08),
    ("M18I", 3.05),
]
